Each entry below carries its reported IC50.
- System: NCI-H358 cells
- protocol: 3D cell proliferation inhibition assay (CellTiter-Glo 3D)
- Assay type: cell-based
- condition label: Homo sapiens, 192 h; NCI-H358 (KRAS G12C-mutated NSCLC), 3D culture, CTG 3D read on Day 8; read-out: Activity by IC50 (nM), inhibitory activity against NCI-H358 cell proliferation

Consider the worked cases shown below.
test smiles	observed property	observed result
[2H]C([2H])([2H])n1ccc(C2=Cc3c(N[C@H](C)c4cccc(C(F)(F)F)c4)nc(C)nc3N3CCN=C23)cc1=O	IC50	50 to 100 nM
Cc1nc(N[C@H](C)c2cccc(C(F)(F)F)c2)c2c(n1)N1CCN=C1C(c1cc(C)c(=O)n(C)c1)=C2	IC50	100 to 500 nM
Cc1nc(N[C@H](C)c2cccc3c2OCC3(F)F)c2c(n1)N1CCN=C1C(c1ccc(=O)n(C)c1)=C2	IC50	100 to 500 nM
Cc1nc(N[C@H](C)c2cccc(C(F)(F)F)c2)c2cc(N3CCN(C)CC3)c3nncn3c2n1	IC50	100 to 500 nM
COCCn1cc(C2=Cc3c(N[C@H](C)c4cccc(C(F)(F)F)c4)nc(C)nc3N3CCN=C23)ccc1=O	IC50	100 to 500 nM

**Q:** What value of IC50 has been reported for the following compound? `Cc1nc(N[C@H](C)c2cccc(C(F)(F)CO)c2)c2c(n1)N1CCN=C1C(c1ccc(=O)n(C)c1)=C2`
**A:** 100 to 500 nM
